# System: SK-BR-3
# assay_details: SRB colorimetric assay of cell growth and viability, SK-BR-3
# Type: cell-based, human
# condition_parameters: 48 hours exposure
Where a SMILES comes first, the peptide text is derived from it. Bridges are numbered along the chain shown (N, C = ends). [ ]: non-standard residue; d: D form. The star is where a group is joined. d(aIle) = CC[C@H](C)[C@@H](N)C(=O)O; d(aThr) = C[C@@H](O)[C@@H](N)C(=O)O; Hexanoyl(5-Me) = CC(C)CCCC(=O)*; Orn = NCCC[C@H](N)C(=O)O; Dhb = C/C=C(\N)C(=O)O
Listed below: GI50 values for each entry.
Numbers only; they are read as µM.

C/C=C1\NC(=O)[C@H](Cc2ccccc2)NC(=O)[C@@H](C(C)C)NC(=O)[C@@H]([C@@H](C)CC)NC(=O)[C@H](NC(=O)[C@H](NC(=O)[C@H](CCCN)NC(=O)[C@H]2CCCN2C(=O)[C@H](NC(=O)[C@H](CCC(N)=O)NC(=O)[C@@H](NC(=O)[C@H](NC(=O)CCCC(C)C)C(C)C)[C@@H](C)O)C(C)C)[C@@H](C)CC)[C@@H](C)OC(=O)[C@H](C(C)C)NC1=O [Compound 48, [Gln^11]-KF] ({Hexanoyl(5-Me)}-[dV]TQ[dV][dP][Orn][d(aIle)][d(aThr)][d(aIle)][dV]F[Dhb]V; ester 8-C)    6.64

Consider now this further compound.
input: State its GI50 on SK-BR-3: C/C=C1\NC(=O)[C@H](Cc2ccccc2)NC(=O)[C@@H](C(C)C)NC(=O)[C@@H]([C@@H](C)CC)NC(=O)[C@H](NC(=O)[C@H](NC(=O)[C@H](CCCN)NC(=O)[C@H]2CCCN2C(=O)[C@H](NC(=O)[C@@H](NC(=O)[C@@H](NC(=O)[C@H](NC(=O)CCCC(C)C)C(C)C)C(C)C)C(C)C)C(C)C)[C@@H](C)CC)[C@@H](C)OC(=O)[C@H](C(C)C)NC1=O [Compound 6, [Val^12]-KF] ({Hexanoyl(5-Me)}-[dV]VV[dV][dP][Orn][d(aIle)][d(aThr)][d(aIle)][dV]F[Dhb]V; ester 8-C)
output: 0.102

====

# Test system: DU-145
# assay_details: SRB colorimetric assay of cell growth and viability, DU-145
# Assay type: cell-based, human
# condition_parameters: DU-145; 48 hours exposure
Where a SMILES comes first, the peptide text is derived from it. Bridges are numbered along the chain shown (N, C = ends). [ ]: non-standard residue; d: D form. The star is where a group is joined. d(aIle) = CC[C@H](C)[C@@H](N)C(=O)O; d(aThr) = C[C@@H](O)[C@@H](N)C(=O)O; Hexanoyl(5-Me) = CC(C)CCCC(=O)*; Orn = NCCC[C@H](N)C(=O)O; Dhb = C/C=C(\N)C(=O)O
Listed below: LC50 (concentration causing 50% net cell kill) values for each entry.
Please append the unit to your numeric answer.

C/C=C1\NC(=O)[C@H](Cc2ccccc2)NC(=O)[C@@H](C(C)C)NC(=O)[C@@H]([C@@H](C)CC)NC(=O)[C@H](NC(=O)[C@H](NC(=O)[C@H](CCCN)NC(=O)[C@H]2CCCN2C(=O)[C@H](NC(=O)[C@@H](NC(=O)[C@@H]2CCCN2C(=O)[C@H](NC(=O)CCCC(C)C)C(C)C)C(C)C)C(C)C)[C@@H](C)CC)[C@@H](C)OC(=O)[C@H](C(C)C)NC1=O [Compound 117, [Pro^12]-KF] ({Hexanoyl(5-Me)}-[dV]PV[dV][dP][Orn][d(aIle)][d(aThr)][d(aIle)][dV]F[Dhb]V; ester 8-C)    6.78 µM

Consider now this further compound.
input: Would you kindly share the measured LC50 (concentration causing 50% net cell kill) for C/C=C1\NC(=O)[C@H](Cc2ccccc2)NC(=O)[C@@H](C(C)C)NC(=O)[C@@H]([C@@H](C)CC)NC(=O)[C@H](NC(=O)[C@H](NC(=O)[C@H](CCCN)NC(=O)[C@H]2CCCN2C(=O)[C@H](NC(=O)[C@@H](NC(=O)[C@@H](NC(=O)[C@@H](CCCN)NC(=O)CCCC(C)C)[C@@H](C)O)C(C)C)C(C)C)[C@@H](C)CC)[C@@H](C)OC(=O)[C@H](C(C)C)NC1=O [Compound 118, [D-Orn^13]-KF] ?
output: 6.7 µM

====

Listed below: TGI PANC-1 values for each entry.
# Tested on: PANC-1
# assay_details: SRB colorimetric assay of cell growth and viability, PANC-1
# Type: cell-based, human
# condition_parameters: 48 hours exposure
Numbers only; they are read as Molar.

C/C=C1\NC(=O)[C@H](Cc2ccccc2)NC(=O)[C@@H](C(C)C)NC(=O)[C@@H]([C@@H](C)CC)NC(=O)[C@H](NC(=O)[C@H](NC(=O)[C@H](CCCN)NC(=O)[C@H]2CCCN2C(=O)[C@H](NC(=O)[C@@H](NC(=O)[C@@H](NC(=O)[C@H](NC(=O)CCCCC(C)(F)F)C(C)C)[C@@H](C)O)C(C)C)C(C)C)[C@@H](C)CC)[C@@H](C)OC(=O)[C@H](C(C)C)NC1=O [Compound 28, [6,6-dFHep^14]-KF]    2.52E−06
C/C=C1\NC(=O)[C@H](Cc2ccccc2)NC(=O)[C@@H](C(C)C)NC(=O)[C@@H]([C@@H](C)CC)NC(=O)[C@H](NC(=O)[C@H](NC(=O)[C@H](CCCN)NC(=O)[C@H]2CCCN2C(=O)[C@H](NC(=O)[C@@H](NC(=O)[C@@H](NC(=O)[C@H](NC(=O)C(F)(F)C(F)(F)C(F)(F)C(F)(F)C(F)(F)C(F)(F)F)C(C)C)[C@@H](C)O)C(C)C)C(C)C)[C@@H](C)CC)[C@@H](C)OC(=O)[C@H](C(C)C)NC1=O [Compound 26, [Pfh^14]-KF]    5.50E−06

Consider now this further compound.
input: Would you kindly share the measured TGI PANC-1 for C/C=C1\NC(=O)[C@H](Cc2ccccc2)NC(=O)[C@@H](C(C)C)NC(=O)[C@@H]([C@@H](C)CC)NC(=O)[C@H](NC(=O)[C@H](NC(=O)[C@H](CCCN)NC(=O)[C@H]2CCCN2C(=O)[C@H](NC(=O)[C@@H](NC(=O)[C@@H](NC(=O)[C@H](NC(=O)CCCC(C)C)C(C)C)[C@@H](C)O)C(C)C)C(C)C)[C@@H](C)CC)[C@H](C)OC(=O)[C@H](C(C)C)NC1=O [Compound 2, [D-Thr^6]-KF] ?
output: 6.77E−06

====

# System: HeLa
# assay_details: SRB colorimetric assay of cell growth and viability, HeLa
# Assay type: cell-based, human
# condition_parameters: HELA; 48 hours exposure; read-out: LC50 HELA
Where a SMILES comes first, the peptide text is derived from it. Bridges are numbered along the chain shown (N, C = ends). [ ]: non-standard residue; d: D form. The star is where a group is joined. d(aIle) = CC[C@H](C)[C@@H](N)C(=O)O; d(aThr) = C[C@@H](O)[C@@H](N)C(=O)O; Hexanoyl(5-Me) = CC(C)CCCC(=O)*; Orn = NCCC[C@H](N)C(=O)O; Dhb = C/C=C(\N)C(=O)O
quantity: CC50 (µM)
Numbers only; they are read as µM.

input: Would you kindly share the measured CC50 for C/C=C1\NC(=O)[C@H](Cc2ccccc2)NC(=O)[C@@H](C(C)C)NC(=O)[C@@H]([C@@H](C)CC)NC(=O)[C@H](NC(=O)[C@H](NC(=O)[C@H](CCCN)NC(=O)[C@H]2CCCN2C(=O)[C@H](NC(=O)[C@@H](NC(=O)[C@@H]2CCCN2C(=O)[C@H](NC(=O)CCCC(C)C)C(C)C)C(C)C)C(C)C)[C@@H](C)CC)[C@@H](C)OC(=O)[C@H](C(C)C)NC1=O [Compound 117, [Pro^12]-KF] ({Hexanoyl(5-Me)}-[dV]PV[dV][dP][Orn][d(aIle)][d(aThr)][d(aIle)][dV]F[Dhb]V; ester 8-C) ?
output: 5.46

====

Listed below: CC50 values for each entry.
# System: LoVo-Dox
# assay_details: SRB colorimetric assay of cell growth and viability, LoVo-Dox
# Assay type: cell-based, human
# condition_parameters: 48 hours exposure, SRB; read-out: LC50 LOVO-DOX
Where a SMILES comes first, the peptide text is derived from it. Bridges are numbered along the chain shown (N, C = ends). [ ]: non-standard residue; d: D form. The star is where a group is joined. d(aIle) = CC[C@H](C)[C@@H](N)C(=O)O; d(aThr) = C[C@@H](O)[C@@H](N)C(=O)O; Hexanoyl(5-Me) = CC(C)CCCC(=O)*; Orn = NCCC[C@H](N)C(=O)O; Dhb = C/C=C(\N)C(=O)O

C/C=C1\NC(=O)[C@H](Cc2c[nH]c3ccccc23)NC(=O)[C@@H](C(C)C)NC(=O)[C@@H]([C@@H](C)CC)NC(=O)[C@H](NC(=O)[C@H](NC(=O)[C@H](CCCN)NC(=O)[C@H]2CCCN2C(=O)[C@H](NC(=O)[C@@H](NC(=O)[C@@H](NC(=O)[C@H](NC(=O)CCCC(C)C)C(C)C)[C@@H](C)O)C(C)C)C(C)C)[C@@H](C)CC)[C@@H](C)OC(=O)[C@H](C(C)C)NC1=O [Compound 68, [Trp^3]-KF] ({Hexanoyl(5-Me)}-[dV]TV[dV][dP][Orn][d(aIle)][d(aThr)][d(aIle)][dV]W[Dhb]V; ester 8-C)    2530 nM

Consider now this further molecule.
input: Would you kindly share the measured CC50 for C/C=C1\NC(=O)[C@H](Cc2ccc(I)cc2)NC(=O)[C@@H](C(C)C)NC(=O)[C@@H]([C@@H](C)CC)NC(=O)[C@H](NC(=O)[C@H](NC(=O)[C@H](CCCN)NC(=O)[C@H]2CCCN2C(=O)[C@H](NC(=O)[C@@H](NC(=O)[C@@H](NC(=O)[C@H](NC(=O)CC[C@@H](C)CC)C(C)C)[C@@H](C)O)C(C)C)C(C)C)[C@@H](C)CC)[C@@H](C)OC(=O)[C@H](C(C)C)NC1=O [Compound 72, [Phe(4-I)^3, (4S)-MeHex^14]-KF] ?
output: 274 nM
